Test system: IL-1β, human peripheral blood mononuclear cells (PBMC)
Procedure Text: PBMC cell assay: IL-1β assay with human PBMC or enriched adherent mononuclear cells, LPS-stimulated
Format: cell-based
Assay Setup: Homo sapiens, PBMC, Table 17
Property Name: IC50 (nM)
Numbers only here, please. The scale is nM.

Bench note, IL-1β, human peripheral blood mononuclear cells (PBMC): "O=C[C@H](CC(=O)O)NC(=O)[C@@H]1CCCN2C(=O)CCN(NC(=O)C(=O)c3ccccc3)C(=O)N12" , IC50 reads 4000

Summary: COCC(=O)N1C[C@H](NC(=O)c2cc(C)c(O)c(C)c2)C(=O)N(CC(=O)N[C@H](C=O)CC(=O)O)c2ccccc21 [Compound 689b] , IL-1β, human peripheral blood mononuclear cells (PBMC), IC50 = 600

Entry "O=C[C@H](CC(=O)O)NC(=O)CN1C(=O)[C@@H](NC(=O)C(=O)c2ccccc2)CN(C(=O)CO)c2ccccc21" , tested on IL-1β, human peripheral blood mononuclear cells (PBMC), has a reported IC50 of 3000

Entry "CC(=O)Nc1ccc(C(=O)N[C@H]2CN(C(=O)CO)c3ccccc3N(CC(=O)N[C@H](C=O)CC(=O)O)C2=O)cc1" ; assay system IL-1β, human peripheral blood mononuclear cells (PBMC); IC50 recorded at 3500

Form: item "O=C[C@H](CC(=O)O)NC(=O)CN1C(=O)[C@@H](NC(=O)c2ccc3[nH]cnc3c2)CN(C(=O)CO)c2ccccc21" ; test system IL-1β, human peripheral blood mononuclear cells (PBMC); IC50: 2100

Here "O=C[C@H](CC(=O)O)NC(=O)CN1C(=O)[C@@H](NC(=O)c2nccc3ccccc23)CN(C(=O)CO)c2ccccc21" was tested on IL-1β, human peripheral blood mononuclear cells (PBMC), and its IC50 came to 2000

Lab note: compound "CC(=O)N1C[C@H](NC(=O)C(=O)c2c[nH]c3ccccc23)C(=O)N(CC(=O)N[C@H](C=O)CC(=O)O)c2ccccc21" tested on IL-1β, human peripheral blood mononuclear cells (PBMC); recorded IC50 was 1400

Value sought: IC50, system IL-1β, human peripheral blood mononuclear cells (PBMC), item "COc1cccc(OC)c1C(=O)C(=O)N[C@H]1CCC(=O)N2CCC[C@@H](C(=O)N[C@H](C=O)CC(=O)O)N2C1=O" . Result: 1800

Sample "CC(=O)Nc1ccc(C(=O)NN2CCC(=O)N3CCC[C@@H](C(=O)N[C@H](C=O)CC(=O)O)N3C2=O)cc1" , system: IL-1β, human peripheral blood mononuclear cells (PBMC). Its IC50 is 4000

Simply: "COc1cccc(OC)c1C(=O)C(=O)N[C@H]1CN(C(C)=O)c2ccccc2N(CC(=O)N[C@H](C=O)CC(=O)O)C1=O" , IL-1β, human peripheral blood mononuclear cells (PBMC), IC50 = 2400

Observed IC50 on IL-1β, human peripheral blood mononuclear cells (PBMC), entry O=C1C[C@H](NC(=O)[C@@H]2CCCN3C(=O)CC[C@H](NC(=O)c4ccccc4)C(=O)N23)[C@H](OCc2ccccc2)O1 [Compound 2100o] , equals 1150

The recorded IC50 with IL-1β, human peripheral blood mononuclear cells (PBMC) for "O=C[C@H](CC(=O)O)NC(=O)[C@@H]1CCCN2C(=O)CCN(NC(=O)c3cc4ccccc4s3)C(=O)N12" was 2000
